Biological target: T1, LIN7C, Q9NUP9
T1 sequence (Q9NUP9 88-185, limits assumed, looked up): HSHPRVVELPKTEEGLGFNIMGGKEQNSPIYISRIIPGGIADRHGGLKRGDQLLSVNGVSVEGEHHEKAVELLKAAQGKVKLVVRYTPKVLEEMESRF
Assay: holdup assay
Set-up: key: below the threshold = too weak to quantify, mostly under pKd 3.1 to 4
Details: plain residues with an end cap or a label only (N-terminal biotin on a linker: ado-ado)
Documented pKd across a set of binders

binder: RFQQRMQTHV [KIRREL1, Q96J84]
pKd: 3.69
--
binder: PYPTADHMLA [JUP, P14923]
pKd: 3.87
--
binder: VLYPREGTEV [FOXI1, Q12951]
pKd: 4.26
--
binder: RQKEVRESKC [SCN8A, Q9UQD0]
pKd: 3.84
--
binder: NIAESLESLV [PTPRZ1, P23471]
pKd: 4.08
--
binder: DPAESMESLV [PTPRG, P23470]
pKd: 3.94
--
binder: DRIQSCLSDA [SBF1, O95248]
pKd: 3.84
--
binder: TGLWKHETTV [ADGRA3, Q8IWK6]
pKd: 4.6
--
binder: SVTSERETNI [SLC16A7, O60669]
pKd: 4.11
--
binder: LPAVCYDIDI [PTTG2, Q9NZH5]
pKd: 4.01
--
binder: EDGESWEYQI [TRPV6, Q9H1D0]
pKd: 3.72
--
binder: ARGPPRESEV [FAM110D, Q8TAY7]
pKd: 3.67
--
binder: SPDRDRESIV [SCN5A, Q14524]
pKd: 4.12
--
binder: DTKNYKQTSV [CRIPT, Q9P021]
pKd: 3.5
--
binder: SLNANEVEWF [RNF130, Q86XS8]
pKd: 3.96

Hello, the source for this data is paper PMC9482650, in case you need it.
